These entries and their values trace back to the supplement of paper PMC9446081.

tgt: DNA primase (UniProt P0ABS7)
Sequence (P0ABS7 whole entry): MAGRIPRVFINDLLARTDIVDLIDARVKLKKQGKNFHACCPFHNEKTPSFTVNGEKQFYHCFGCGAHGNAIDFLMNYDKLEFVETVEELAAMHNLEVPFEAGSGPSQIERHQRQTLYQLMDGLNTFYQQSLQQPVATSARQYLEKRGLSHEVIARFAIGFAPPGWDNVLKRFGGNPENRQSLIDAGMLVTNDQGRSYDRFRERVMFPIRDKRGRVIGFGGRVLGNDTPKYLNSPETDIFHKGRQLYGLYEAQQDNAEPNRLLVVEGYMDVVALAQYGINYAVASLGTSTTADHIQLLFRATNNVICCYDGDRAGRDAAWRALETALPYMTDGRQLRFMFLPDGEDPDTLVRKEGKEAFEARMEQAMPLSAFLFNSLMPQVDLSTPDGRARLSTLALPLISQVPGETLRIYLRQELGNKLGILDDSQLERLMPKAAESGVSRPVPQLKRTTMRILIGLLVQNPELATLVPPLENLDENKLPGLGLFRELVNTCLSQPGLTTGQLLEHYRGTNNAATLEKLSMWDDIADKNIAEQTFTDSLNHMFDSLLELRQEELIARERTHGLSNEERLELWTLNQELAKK
assay: relative enzymatic activity vs untreated control (fraction); higher = less inhibition
test.settings: 100 µM; incubation time: 2 h at 37 C
quantity.name: relative enzymatic activity
Just the number.

molecule	relative enzymatic activity
Cc1nc2c(=O)n(C)c(=O)nc-2n(C)n1	0.8
O=[N+]([O-])C(Br)(CO)CO	0.596
CN(C)[C@@H]1C(=O)C(C(N)=O)=C(O)[C@@]2(O)C(O)=C3C(=O)c4c(O)cccc4[C@](C)(O)[C@H]3C[C@@H]12	0.753
Cn1ncnc2c(=O)n(C)c(=O)nc1-2	0.758
Cc1c(N)nc([C@H](CC(N)=O)NC[C@@H](N)C(N)=O)nc1C(=O)N[C@H](C(=O)N[C@@H](C)[C@H](O)[C@@H](C)C(=O)N[C@@H](C(=O)NCCc1nc(-c2nc(C(=O)NCCC[S+](C)C)cs2)cs1)[C@@H](C)O)[C@@H](O[C@H]1O[C@H](CO)[C@H](O)[C@@H](O)[C@H]1O[C@H]1O[C@H](CO)[C@@H](O)[C@H](OC(N)=O)[C@@H]1O)c1c[nH]cn1	0.878
CCCCCCCCCCCCCCCC[n+]1ccccc1	0.341

Okay, now this molecule:
Task: What measured relative enzymatic activity goes with CC(=O)Oc1ccc(Cl)c2cccnc12 ?
Output: 0.836
